Test: growth inhibition of wild-type GFP E. coli, dose response, h38 mutant RFP, cherry-pick (AID 977622)
Conditions: 24 h; E. coli mixed culture, total growth OD600 at 50 uM, at 50 µM
Hit rate of the full screen: of about 1,900 compounds, fewer than 10 were called active. Roughly 39% stayed inconclusive and do not appear here. A selection follows.
So I've got a bunch of molecules here, and I need their activity change values.
Your answer should be a plain number; it is taken to be in %.

Data request: # query: activity change of entry Cc1cc(C)n(CC(O)COc2ccc3ccccc3c2)n1 (stereo not given)
Data returned: 4.91

Data request: Can you handle `O=C(Nc1cc(S(=O)(=O)N2CCOCC2)ccc1N1CCOCC1)c1ccc([N+](=O)[O-])s1` next?
Data returned: -3.16

Data request: Proceed to CCNC(=O)C1(C)CCCN(Cc2cccc3ccccc23)C1 (stereo not given)
Data returned: 1.55

Data request: Now the same for `C[C@H]1CN([C@@H](C)CO)C(=O)c2c(c3ccccc3n2C)-c2ccccc2CO[C@@H]1CN(C)Cc1ccncc1`
Data returned: -20.6

Data request: Also need `COc1ccc(NS(=O)(=O)c2cc(NC(=O)CNC(=O)c3cccc(OC)c3)ccc2C)cc1` , thanks.
Data returned: -27.6

Data request: Next entry: `CN(C)CCNc1ncnc2c1sc1nc(N3CCCC3)c3c(c12)CC(C)(C)OC3`
Data returned: -21.5

Data request: Proceed to `COc1ccc(C#Cc2ccc([C@H]3[C@@H](CO)N4CCCCN(C(=O)Nc5cccc(F)c5)C[C@H]34)cc2)cc1`
Data returned: -17.6

Data request: // repeat for `CC(C)CC#Cc1ccc([C@@H]2[C@@H](CO)N3C(=O)CN(C(=O)Cc4ccccc4)C[C@@H]23)cc1` and report
Data returned: 9.26

Data request: What do you have for `CN(Cc1ccccc1NS(=O)(=O)c1ccc(Cl)cc1)C1CCCCC1` ?
Data returned: 4.68

Data request: Now give it for O=C(COC(=O)C1CC2C=CC1C2)Nc1ccc([N+](=O)[O-])cc1 (stereo not given) too.
Data returned: -15.1

Data request: Check `COc1cccc(CN(C)Cc2nc(Cc3ccccc3Cl)no2)c1` too.
Data returned: -26.5

Data request: Also need COc1cc2c(c(OC)c1OC)C(c1ccc3c(c1)OCO3)CC(=O)O2 (stereo not given) , thanks.
Data returned: -14.3

Data request: Now consider `Cc1occc1-c1nnc(SCC(=O)Nc2nc(-c3ccccc3)cs2)o1` and answer again.
Data returned: -4.96

Data request: Also `NS(=O)(=O)c1ccc(NC(=O)c2cc(Cl)sc2Cl)cc1` ?
Data returned: 0.867

Data request: Then `COc1ccc(OC)c(NC(=O)COc2ccc(S(=O)(=O)NC(C)C)cc2)c1` ?
Data returned: -14.2

Data request: Same question for `COc1ccc(C#Cc2ccc([C@@H]3[C@@H](CO)N4CCCCN(C(=O)Nc5ccc(F)cc5)C[C@H]34)cc2)cc1` please.
Data returned: -49.7

Data request: Now the same for `Cc1noc(C)c1NC(=O)Nc1ccc2c(c1)C(=O)N([C@H](C)CO)C[C@H](C)[C@H](CN(C)C(=O)Nc1ccc3c(c1)OCO3)OCCCC[C@H](C)O2`
Data returned: -22

Data request: Try this molecule next: `CCOC(=O)c1cnc2ccccc2c1NCc1ccco1`
Data returned: -29.3

Data request: Note, next up: `NC(=O)C1CCN(c2cc(Cl)ccc2[N+](=O)[O-])CC1`
Data returned: -7.61

Data request: Then `CCOC(=O)Cc1csc(SCC(=O)Nc2cc(C)ccc2OC)n1` ?
Data returned: -33.1

Sourced from PubChem BioAssay AID977622
